Please respond with reported inhibition in vivo at 10 mg/kg for every item in the list.
System: laser-induced thrombosis in the arterioles and venules of the rat mesentery
METHOD_SUMMARY: laser-induced thrombosis in arterioles of the rat mesentery
Type: in vivo, rat (female Sprague-Dawley)
CONDITION_DESCRIPTION: Rattus norvegicus, po; 10 mg/kg xanthine derivative orally, n = 3; read-out: percentage improvement compared with the placebo controls
Give bare numbers, in %.

Prompt line: Specify reported inhibition in vivo at 10 mg/kg for the compound shown: CCCn1cnc2c1c(=O)n(CCCCC(C)=O)c(=O)n2C [1-(5-Oxohexyl)-3-methyl-7-propylxanthine]
Response line: 42

Hello, I would appreciate it if you could give inhibition in vivo at 10 mg/kg for each entry below.
1. CCCn1cnc2c1c(=O)n(CCCCC(C)O)c(=O)n2C (stereo not drawn)
2. CCCCCCn1c(=O)c2c(ncn2C)n(C)c1=O [1-Hexyl-3,7-dimethylxanthine]
3. CC(C)Cn1c(=O)c2c(ncn2CCCCC(C)O)n(C)c1=O (stereo not drawn)
4. CC(=O)CCCCn1c(=O)c2c(ncn2CC(C)C)n(C)c1=O

Response line:
[40, 39, 29, 28]

Take each entry in turn and give its inhibition in vivo at 10 mg/kg.
1. CC(=O)CCCCn1cnc2c1c(=O)n(CCC(C)C)c(=O)n2C
2. CCn1c(=O)c2c(ncn2CCCCC(C)=O)n(CC)c1=O [1-Ethyl-3-ethyl-7-(5-oxohexyl-)-xanthine]
3. CCCn1c(=O)c2c(ncn2CCCCC(C)O)n(C)c1=O (stereo not drawn)
4. CC(=O)CCCCn1cnc2c1c(=O)n(CC(C)C)c(=O)n2C
5. CC(O)CCCCn1cnc2c1c(=O)n(C(C)C)c(=O)n2C (stereo not drawn)
6. CC(O)CCCCn1c(=O)c2c(ncn2C)n(C)c1=O (stereo not drawn) [1-(5-Hydroxyhexyl)-3,7-dimethyl-xanthine, 1-(5-hydroxyhexyl)-3,7-dimethylxanthine]
7. CC(C)Cn1cnc2c1c(=O)n(CCCCC(C)O)c(=O)n2C (stereo not drawn)

Response line:
1. 26
2. 41
3. 35
4. 28
5. 31
6. 52
7. 23

Batch lookup, inhibition in vivo at 10 mg/kg per entry.
1. CCCn1cnc2c1c(=O)n(CCC(C)=O)c(=O)n2C
2. CCCCn1c(=O)c2c(ncn2CC(C)=O)n(CCCC)c1=O
3. CC(C)CCn1c(=O)c2c(ncn2CCCCC(C)O)n(C)c1=O (stereo not drawn)

Response line:
[40, 33, 28]
